# TGI values compiled below
Tested on: HT29 colon
ASSAY NOTES: NCI tumour cell line growth inhibition, 48 h
ATTRIBUTE MEASURED: TGI

[
  {
    "COMPOUND": "N#CC1=C(N)N=C(N2CCCCC2)C(C#N)C12Nc1ccccc1S2 (stereo not drawn)",
    "TARGET OR SYSTEM": "HT29 colon",
    "VALUE REPORTED": "> 100 µM"
  },
  {
    "COMPOUND": "Cc1cccc(C)c1NC(=O)/C(Cl)=C(/Cl)C(=O)O",
    "TARGET OR SYSTEM": "HT29 colon",
    "VALUE REPORTED": "39.3 µM"
  },
  {
    "COMPOUND": "COC(=O)COc1ccc(/C=C2\\N=C(c3ccccc3)N(c3cc(C(F)(F)F)ccc3Cl)C2=O)cc1",
    "TARGET OR SYSTEM": "HT29 colon",
    "VALUE REPORTED": "> 100 µM"
  },
  {
    "COMPOUND": "CCCN=C1Nc2ccccc2[C@@H]2N(C)c3ccccc3C(C)C[C@]12C (stereo partly drawn)",
    "TARGET OR SYSTEM": "HT29 colon",
    "VALUE REPORTED": "27.8 µM"
  },
  {
    "COMPOUND": "COC(=O)C1=C(O)C(C(=O)OC)[C@]2(O)[C@H](C(=O)OC)[C@H]1C[C@@H](c1cccc(OC)c1)[C@H]2C(=O)OC (stereo partly drawn)",
    "TARGET OR SYSTEM": "HT29 colon",
    "VALUE REPORTED": "> 100 µM"
  },
  {
    "COMPOUND": "O=C(CCCC1Cc2ccccc2C1=O)c1ccccc1 (stereo not drawn)",
    "TARGET OR SYSTEM": "HT29 colon",
    "VALUE REPORTED": "> 100 µM"
  },
  {
    "COMPOUND": "[N-]=[N+]=NC1=NNC2(C(=O)N1)c1ccccc1-c1ccccc12",
    "TARGET OR SYSTEM": "HT29 colon",
    "VALUE REPORTED": "> 100 µM"
  },
  {
    "COMPOUND": "CCC(C)NC(=S)N/N=C(\\C)c1ccccn1 (stereo not drawn)",
    "TARGET OR SYSTEM": "HT29 colon",
    "VALUE REPORTED": "> 100 µM"
  },
  {
    "COMPOUND": "c1ccc2c(c1)CCN(C1=NCCO1)C2",
    "TARGET OR SYSTEM": "HT29 colon",
    "VALUE REPORTED": "> 10 µM"
  },
  {
    "COMPOUND": "O=c1[nH]c2nccnc2c2c([N+](=O)[O-])cccc12",
    "TARGET OR SYSTEM": "HT29 colon",
    "VALUE REPORTED": "> 100 µM"
  },
  {
    "COMPOUND": "N#CC1=C(N)OC2=C(COc3ccc(F)cc32)C1c1ccc(Cl)cc1 (stereo not drawn)",
    "TARGET OR SYSTEM": "HT29 colon",
    "VALUE REPORTED": "> 100 µM"
  },
  {
    "COMPOUND": "NCCCN(CCCN)CCCNCc1c2ccccc2c(CNCCCN(CCCN)CCCN)c2ccccc12",
    "TARGET OR SYSTEM": "HT29 colon",
    "VALUE REPORTED": "37.5 µM"
  },
  {
    "COMPOUND": "Cc1cccc(/C=N/NC(=S)N2CCCCCC2)n1",
    "TARGET OR SYSTEM": "HT29 colon",
    "VALUE REPORTED": "> 40 µM"
  },
  {
    "COMPOUND": "Cc1ccc(C(=O)Cc2nc3ncccc3[nH]c2=O)cc1",
    "TARGET OR SYSTEM": "HT29 colon",
    "VALUE REPORTED": "> 100 µM"
  },
  {
    "COMPOUND": "C=C(Cl)COC(=O)Nc1cccc(Cl)c1",
    "TARGET OR SYSTEM": "HT29 colon",
    "VALUE REPORTED": "> 100 µM"
  },
  {
    "COMPOUND": "CC(=O)OCSc1ncnc2c1ncn2CN1CCOCC1",
    "TARGET OR SYSTEM": "HT29 colon",
    "VALUE REPORTED": "94.8 µM"
  },
  {
    "COMPOUND": "CCN(CC)CCOc1ccc(Nc2ncc3cc(-c4ccc(O)cc4)c(=O)n(C)c3n2)cc1",
    "TARGET OR SYSTEM": "HT29 colon",
    "VALUE REPORTED": "2.79 µM"
  },
  {
    "COMPOUND": "CC(=O)[C@H]1CC[C@H]2[C@@H]3CCC4=CC(=O)CC[C@]4(C)[C@H]3CC[C@]12C",
    "TARGET OR SYSTEM": "HT29 colon",
    "VALUE REPORTED": "29.7 µM"
  },
  {
    "COMPOUND": "CC1(CO)OC1COCc1ccccc1 (stereo not drawn)",
    "TARGET OR SYSTEM": "HT29 colon",
    "VALUE REPORTED": "> 100 µM"
  },
  {
    "COMPOUND": "CCOc1cc2c(cnc3c4cc(OC)c(OC)cc4ccc23)cc1OC",
    "TARGET OR SYSTEM": "HT29 colon",
    "VALUE REPORTED": "> 100 µM"
  },
  {
    "COMPOUND": "C=C(C)[C@@H]1CC[C@]2(CO)CC[C@]3(C)[C@H](CC[C@@H]4[C@@]5(C)CC[C@H](O)C(C)(C)[C@@H]5CC[C@]43C)[C@@H]12",
    "TARGET OR SYSTEM": "HT29 colon",
    "VALUE REPORTED": "48.6 µM"
  },
  {
    "COMPOUND": "Cc1cc(O)c(C(=O)CC2(O)C(=O)Nc3c(Cl)cc(Cl)cc32)c(=O)o1 (stereo not drawn)",
    "TARGET OR SYSTEM": "HT29 colon",
    "VALUE REPORTED": "> 100 µM"
  },
  {
    "COMPOUND": "Cc1nc2c(=O)[nH]c(=O)n(C)c2[nH]c1=O",
    "TARGET OR SYSTEM": "HT29 colon",
    "VALUE REPORTED": "> 100 µM"
  },
  {
    "COMPOUND": "Cc1cccc(C)c1NC(=O)CCCC(=O)CC(=O)/C=C/c1ccccc1",
    "TARGET OR SYSTEM": "HT29 colon",
    "VALUE REPORTED": "> 100 µM"
  },
  {
    "COMPOUND": "Cc1ccc(S(=O)(=O)N(CC(O)c2ccccc2)c2ccccc2F)cc1 (stereo not drawn)",
    "TARGET OR SYSTEM": "HT29 colon",
    "VALUE REPORTED": "34.4 µM"
  },
  {
    "COMPOUND": "C=C1C(=O)O[C@@H]2C1C[C@@H](O)/C(C)=C/C/C=C(\\C)CCC[C@H](C)[C@H]2OC(C)=O (stereo partly drawn)",
    "TARGET OR SYSTEM": "HT29 colon",
    "VALUE REPORTED": "> 100 µM"
  },
  {
    "COMPOUND": "OCc1c2c(cc3c1CC1(C3)Cc3cc4c(c(CO)c3C1)CCC4)CCC2",
    "TARGET OR SYSTEM": "HT29 colon",
    "VALUE REPORTED": "32.4 µM"
  },
  {
    "COMPOUND": "CC1(C)OC[C@@H]([C@@]2(CO[Si](C)(C)C(C)(C)C)CC=CC(=O)O2)O1",
    "TARGET OR SYSTEM": "HT29 colon",
    "VALUE REPORTED": "> 100 µM"
  },
  {
    "COMPOUND": "OC12C3C4CC5C(C4[C@@H]1Br)C2[C@@](O)(c1c(F)c(F)c(F)c(F)c1F)C53 (stereo partly drawn)",
    "TARGET OR SYSTEM": "HT29 colon",
    "VALUE REPORTED": "> 100 µM"
  },
  {
    "COMPOUND": "OCCN1CN(c2nc(N3CN(CCO)C3)nc(N3CN(CCO)C3)n2)C1",
    "TARGET OR SYSTEM": "HT29 colon",
    "VALUE REPORTED": "71.4 µM"
  },
  {
    "COMPOUND": "O=C(NC1CC1)c1ccc(-c2nc3ccc4[nH]ncc4c3c3c2CCCC3)cc1",
    "TARGET OR SYSTEM": "HT29 colon",
    "VALUE REPORTED": "> 50 µM"
  },
  {
    "COMPOUND": "c1nc2cscc2c2cscc12",
    "TARGET OR SYSTEM": "HT29 colon",
    "VALUE REPORTED": "> 100 µM"
  },
  {
    "COMPOUND": "Cc1ccc(S(=O)(=O)NC(=O)NC(Cc2ccccc2)C(=O)O)cc1 (stereo not drawn)",
    "TARGET OR SYSTEM": "HT29 colon",
    "VALUE REPORTED": "> 100 µM"
  },
  {
    "COMPOUND": "CC(C)(C)C(=O)Nc1ccccc1I(=O)=O",
    "TARGET OR SYSTEM": "HT29 colon",
    "VALUE REPORTED": "> 100 µM"
  },
  {
    "COMPOUND": "COc1ccc2c(c1)nc(N)c1c3cc(OC)c(OC)cc3cn21",
    "TARGET OR SYSTEM": "HT29 colon",
    "VALUE REPORTED": "11.2 µM"
  },
  {
    "COMPOUND": "O=C1C(=Cc2ccco2)C(=O)C2CCCCC12 (stereo not drawn)",
    "TARGET OR SYSTEM": "HT29 colon",
    "VALUE REPORTED": "> 100 µM"
  },
  {
    "COMPOUND": "N#CC1=C(N)NC(=S)NC12Nc1ccccc1O2 (stereo not drawn)",
    "TARGET OR SYSTEM": "HT29 colon",
    "VALUE REPORTED": "90.8 µM"
  },
  {
    "COMPOUND": "COC1/C=C\\C=C(/C)C(=O)Nc2cc3nc4ccc(Br)cc4oc-3c(c2=O)CC(C)CC(OC)C(O)C(C)/C=C(\\C)C1OC(N)=O (stereo not drawn)",
    "TARGET OR SYSTEM": "HT29 colon",
    "VALUE REPORTED": "7.91 µM"
  },
  {
    "COMPOUND": "CC1(C)CC(=O)C2=C(C1)NC(SCC(=O)O)=C(C#N)C2c1ccc(Br)cc1 (stereo not drawn)",
    "TARGET OR SYSTEM": "HT29 colon",
    "VALUE REPORTED": "> 100 µM"
  },
  {
    "COMPOUND": "COc1cc2c(c(OC)c1OC)-c1ccc(SC)c(=O)cc1[C@@H](NC(=O)c1ccc(OC(C)=O)cc1)CC2",
    "TARGET OR SYSTEM": "HT29 colon",
    "VALUE REPORTED": "0.0653 µM"
  },
  {
    "COMPOUND": "N#CC(c1nc2ccccc2s1)c1nc(Cl)ncc1Br (stereo not drawn)",
    "TARGET OR SYSTEM": "HT29 colon",
    "VALUE REPORTED": "> 100 µM"
  },
  {
    "COMPOUND": "COc1cc2c(cc1OC)C1=Cc3ccc(OC)c(OC)c3C(C#N)N1CC2 (stereo not drawn)",
    "TARGET OR SYSTEM": "HT29 colon",
    "VALUE REPORTED": "> 100 µM"
  },
  {
    "COMPOUND": "Cc1ccc2ccc(=O)oc2c1",
    "TARGET OR SYSTEM": "HT29 colon",
    "VALUE REPORTED": "> 100 µM"
  }
]
